pIC50: −log10 of the molar value.
Here is a set of compounds with reported pIC50 for Aminopeptidase N (Sus scrofa, UniProt P15145), compiled from the literature.
ASSAY METRIC: pIC50

# STRUCTURE SMILES, MEASURED
data = [
    ("O=C(O)CN1C(=O)CC[C@H](NC(=O)c2cc(O)c(O)c(O)c2)C1=O", 4.33),
    ("COc1cc(C(=O)N[C@H](CCC(=O)O)C(=O)Nc2ccc(C(=O)O)c(O)c2)cc(OC)c1OC", 4.24),
    ("CC(C)NC(=O)C[C@@H](NC(=O)/C=C/c1ccccc1)C(=O)NO", 4.18),
]
